Molecular target: T1, biotin-labeled DsbA (UniProt P0AEG4 20-208, limits assumed, biotin-labeled)
T1 sequence (looked up): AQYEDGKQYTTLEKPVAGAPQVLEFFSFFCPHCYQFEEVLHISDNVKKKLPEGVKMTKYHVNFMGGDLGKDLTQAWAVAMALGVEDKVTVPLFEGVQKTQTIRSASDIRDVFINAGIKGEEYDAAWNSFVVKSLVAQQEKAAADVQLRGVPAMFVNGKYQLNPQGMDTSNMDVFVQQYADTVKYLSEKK
Assay: SPR, Biacore X100, biotin-DsbA on streptavidin chip, peptide as analyte
No end group written: not given here.
# Kd per entry
property measured: Kd (nM)

[[record]]
binder = "HNWAAQCLNPDQAKL-NH2 [HNWAAQCLNPDQAKL-NH2]"
property_measured = "Kd"
unit_label = "nM"
test_result = 57

[[record]]
binder = "HNWAAQCLKDQAKL-NH2 [HNWAAQCLKDQAKL-NH2]"
property_measured = "Kd"
unit_label = "nM"
test_result = 88

[[record]]
binder = "YVYGMCWKDYTTDK-NH2 [YVYGMCWKDYTTDK-NH2]"
property_measured = "Kd"
unit_label = "nM"
test_result = 78

[[record]]
binder = "DFWHGEQCKVTQFDQ-NH2 [DFWHGEQCKVTQFDQ-NH2]"
property_measured = "Kd"
unit_label = "nM"
test_result = 53

[[record]]
binder = "SIIGQCYKKDPSQAT-NH2 [SIIGQCYKKDPSQAT-NH2]"
property_measured = "Kd"
unit_label = "nM"
test_result = 553

[[record]]
binder = "VILGQCLKQ-NH2 [VILGQCLKQ-NH2]"
property_measured = "Kd"
unit_label = "nM"
test_result = 517

[[record]]
binder = "DFWHGDTCKVTQFDQ-NH2 [DsbA_1_WT]"
property_measured = "Kd"
unit_label = "nM"
test_result = 208

[[record]]
binder = "YVYGMCWKDYTDTDK-NH2 [YVYGMCWKDYTDTDK-NH2]"
property_measured = "Kd"
unit_label = "nM"
test_result = 116

[[record]]
binder = "NDYQYKGQQCLDPKY-NH2 [NDYQYKGQQCLDPKY-NH2]"
property_measured = "Kd"
unit_label = "nM"
test_result = 48

